test: Displacement of ethidium from poly[d(G-C)]-poly[d(G-C)] DNA (unknown origin) by fluorimetric assay
Assign classes using reported C50 values and the ranges band A = under 3 µM, band B = from 3 µM up to 100 µM, band C = 100 µM and over, please.

Example entries and their recorded answers appear below.
N=C(N)c1ccc(/C=C/c2ccc(C(=N)N)cc2O)cc1 [HYDROXYSTILBAMIDINE] = band B
C/C(=N\NC(=N)N)c1cccc(NC(=O)Nc2cccc(/C(C)=N/NC(=N)N)c2)c1 = band A
CC(/C=N/NC(=N)N)=N\NC(=N)N [MITOGUAZONE] = band C
CCC(/C=N/NC(=N)N)=N\NC(=N)N.Cl = band C
C/C(=N\NC(=N)N)c1ccc(NC(=N)Nc2ccc(/C(C)=N/NC(=N)N)cc2)cc1 = band A
Cl.N=C(N)N/N=C/c1ccc(-c2ccc(/C=N/NC(=N)N)cc2)cc1 = band A
C/C(=N\NC(=N)N)c1ccc(NC(=S)Nc2ccc(/C(C)=N/NC(=N)N)cc2)cc1 = band B
N=C(N)NN=C1C=CC(=NNC(=N)N)C=C1 = band C
CC(=N\NC(=N)N)/C(C)=N/NC(=N)N = band B
C/C(=N\NC(=N)N)c1ccc(NC(=O)Nc2ccc(/C(C)=N/NC(=N)N)cc2)cc1 = band A

Query block: Classify this compound: "CNC(=N)N/N=C/C(C)=N/NC(=N)NC"
Result block: band C

Query block: Where would N=C(N)NCCCCCCCCCCNC(=N)N [SYNTHALIN] land among the classes by reported C50?
Result block: band C

Query block: // return the class label for "N=C(N)N/N=C/CCC/C=N/NC(=N)N"
Result block: band B

Query block: For this compound, which bin applies? "N=C(N)N/N=C/c1ccc(NC(=O)Nc2ccc(/C=N/NC(=N)N)cc2)cc1"
Result block: band A

Query block: Lab note: sort "CC(/C=N/N(C)C(=N)N)=N\N(C)C(=N)N" into the matching C50 band.
Result block: band C

Query block: For the record "Cl.N=C(N)N/N=C/c1ccc(/C=N/NC(=N)N)cc1" , report the class its C50 corresponds to.
Result block: band B
